Entry source: PubChem BioAssay (Tox21)

# target: Nuclear receptor subfamily 1 group I member 3 (Homo sapiens) (UniProt Q14994)
# Sequence (Q14994 whole entry, looked up): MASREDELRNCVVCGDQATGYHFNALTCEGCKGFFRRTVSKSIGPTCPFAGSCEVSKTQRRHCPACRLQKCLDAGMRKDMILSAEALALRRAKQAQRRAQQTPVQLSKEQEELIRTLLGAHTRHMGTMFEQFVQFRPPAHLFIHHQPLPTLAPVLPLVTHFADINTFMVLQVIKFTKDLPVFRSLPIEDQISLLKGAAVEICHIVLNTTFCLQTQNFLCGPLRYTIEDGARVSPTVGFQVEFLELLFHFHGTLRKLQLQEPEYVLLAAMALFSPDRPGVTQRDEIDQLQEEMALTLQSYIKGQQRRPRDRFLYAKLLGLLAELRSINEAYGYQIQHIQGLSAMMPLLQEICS
# protocol-notes: qHTS assay to identify small molecule agonists of the constitutive androstane receptor (CAR) signaling pathway (AID 1224839); note: nearly all actives have a fitted effect of over 15% in size;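 for activation: HepG2 cells stably carrying human CAR and a CYP2B6 luciferase reporter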
# condition-set: HepG2 hCAR CYP2B6-luciferase, agonist mode, 24 h; series mostly up to 92.4 µM
Results filed as inconclusive are left out. The source made the active and inactive calls. Calls come from the whole dose curve; as a rule, active = well fitted activation curve with a large enough effect in the repeat runs; inconclusive = weak or mixed curves; inactive = no such curve, though single readings can be large or run the other way.
Answer with one of the outcomes given here: active, inactive

Qu. Hey, what did the test say about S=c1nccc[nH]1 ?
Ans. inactive

Qu. Hey, what did the test say about CC1(C)CCC[C@]2(C)[C@H]3CC(=O)O[C@]3(C)CC[C@@H]12 ?
Ans. inactive

Qu. Hey, what did the test say about CC(C)=CCC1=C(O)c2ccccc2C(=O)C1=O ?
Ans. active

Qu. Hey, what did the test say about Cc1nc(-c2ccc(Cl)cc2)oc1COC(C)(C)C(=O)O ?
Ans. inactive

Qu. Hey, what did the test say about COc1cc(/C=C/c2ccccc2)oc(=O)c1 ?
Ans. active

Qu. Hey, what did the test say about Cc1ccc(O)c(O)c1 ?
Ans. active

Qu. Hey, what did the test say about OCCN1CCN(CCCN2c3ccccc3Sc3ccc(C(F)(F)F)cc32)CC1 ?
Ans. inactive

Qu. Hey, what did the test say about O=C1CCCCCCCCCCCCCCCO1 ?
Ans. inactive

Qu. Hey, what did the test say about C#C[C@]1(OC(C)=O)CC[C@H]2[C@@H]3CCC4=C/C(=N/O)CC[C@@H]4[C@H]3CC[C@@]21CC ?
Ans. inactive

Qu. Hey, what did the test say about CCC(=O)OC(=O)CC ?
Ans. inactive

Qu. Hey, what did the test say about CCO[Si](OCC)(OCC)OCC ?
Ans. inactive

Qu. Hey, what did the test say about Nc1ccc(NCCO)c([N+](=O)[O-])c1 ?
Ans. inactive

Qu. Hey, what did the test say about Cc1ccc(N/N=c2\c(=O)cc/c(=N\Nc3ccc(S(=O)(=O)O)cc3)c2=O)c(C)c1 ?
Ans. inactive

---

# protocol-notes: qHTS assay to identify small molecule agonists of the retinoic acid receptor (RAR) signaling pathway (AID 1159553)
# condition-set: C3RL4 RARE luciferase reporter, agonist, 6 h
Inconclusive results are not listed. Calls of active or inactive are those of the source. The call rests on the fitted dose curve; in most records, active means well fitted activation curve with a large enough effect in the repeat runs; inconclusive means weak or mixed curves, or effect the other way; inactive means no such curve, though single readings can be large or run the other way.
Answer with one of the outcomes given here: active, inactive

Qu. Hey, what did the test say about Cc1cc(=O)oc2cc(O)cc(O)c12 ?
Ans. inactive

Qu. Hey, what did the test say about ClCCl ?
Ans. inactive

Qu. Hey, what did the test say about CCOc1ccc2ccccc2c1C(=O)N[C@@H]1C(=O)N2[C@@H]1SC(C)(C)[C@@H]2C(=O)O ?
Ans. inactive

Qu. Hey, what did the test say about Cc1ccc(O)c(N)c1 ?
Ans. active

Qu. Hey, what did the test say about C#Cc1ccc(-c2ccccc2F)cc1 ?
Ans. inactive

Qu. Hey, what did the test say about COCCOc1cc2cc(C(=O)NC3CCN(C(C)C)CC3)n(CC(=O)Nc3ccc(Cl)cn3)c2cn1 ?
Ans. inactive

Qu. Hey, what did the test say about CCc1oc2ccccc2c1C(=O)c1cc(I)c(O)c(I)c1 ?
Ans. inactive

---

# target: Cytochrome P450 2C9 (Homo sapiens)
# protocol-notes: Cytochrome P450 Family 2 Subfamily C Member 9 (CYP2C9) small molecule antagonists: luciferase reporter qHTS assay (AID 1671198); note: potency is the fitted concentration of half-maximal effect; nearly all actives have a fitted effect of over 50% in size
# condition-set: P450-Glo CYP2C9 enzyme assay, luciferin luminescence; series mostly up to 115 µM
Results filed as inconclusive are left out. Active and inactive are the calls of the source. Calls follow the shape of the dose curve; as a rule, active = well fitted inhibition curve with a large enough effect in the repeat runs; inconclusive = weak or mixed curves; inactive = no such curve, though single readings can be large or run the other way.
property-measured: Potency

Qu. Give the measured Potency of COC(=O)C1=C(C)NC(C)=C(C(=O)OCCN2CCN(C(c3ccccc3)c3ccccc3)CC2)C1c1cccc([N+](=O)[O-])c1 (stereo not drawn) .
Ans. 0.692 µM (active)

Qu. Give the measured Potency of CCCC(=O)OCOC(=O)C1=C(C)NC(C)=C(C(=O)OC)C1c1cccc(Cl)c1Cl (stereo not drawn) .
Ans. 2.19 µM (active)

Qu. Give the measured Potency of c1ccc(SSc2ccccc2)cc1 .
Ans. 31.9 µM (active)

---

# target: Nuclear receptor subfamily 1 group I member 2 (Homo sapiens)
# protocol-notes: Human pregnane X receptor (PXR) small molecule agonists, qHTS assay (AID 1346982); note: nearly all actives have a fitted effect of over 35% in size
# condition-set: PXR-Luc HepG2, CYP3A4 luciferase reporter, 24 h; series mostly up to 92.4 µM
Results filed as inconclusive are left out. Activity calls are given as the source filed them. Calls follow the shape of the dose curve; as a rule, active = well fitted activation curve with a large enough effect in the repeat runs; inconclusive = weak or mixed curves; inactive = no such curve, though single readings can be large or run the other way.
Answer with one of the outcomes given here: active, inactive

Qu. Hey, what did the test say about Sc1nc2ccccc2s1 ?
Ans. active

Qu. Hey, what did the test say about CC(CO)Oc1ccccc1 (stereo not given) ?
Ans. inactive

Qu. Hey, what did the test say about O=C(O)[C@H](O)[C@@H](O)[C@H](O[C@@H]1O[C@H](CO)[C@H](O)[C@H](O)[C@H]1O)[C@H](O)CO ?
Ans. inactive

Qu. Hey, what did the test say about S=c1nccc[nH]1 ?
Ans. inactive

Qu. Hey, what did the test say about O=c1oc2cc(O)ccc2c2oc3cc(O)ccc3c12 ?
Ans. active

Qu. Hey, what did the test say about CCCCC(CC)COC(=O)CCCCC(=O)OCc1ccccc1 (stereo not given) ?
Ans. inactive

Qu. Hey, what did the test say about C=Cc1cccc(C)c1 ?
Ans. inactive

Qu. Hey, what did the test say about Cc1ccc(O)c(N)c1 ?
Ans. active

Qu. Hey, what did the test say about OC[C@@H](O)[C@@H](O)CO ?
Ans. inactive

Qu. Hey, what did the test say about O[C@@H]([C@H](O)[C@H](O)CBr)[C@H](O)CBr ?
Ans. inactive

Qu. Hey, what did the test say about OC/C=C/CO ?
Ans. inactive

Qu. Hey, what did the test say about CCc1ccc(Br)cc1 ?
Ans. inactive

Qu. Hey, what did the test say about CCn1c2ccccc2c2cc([N+](=O)[O-])ccc21 ?
Ans. active

Qu. Hey, what did the test say about C=Cc1ccccc1C=C ?
Ans. active

Qu. Hey, what did the test say about CC(C)NC[C@@H](O)COc1ccc(CC(N)=O)cc1 ?
Ans. inactive

Qu. Hey, what did the test say about NC(=O)c1cccc([N+](=O)[O-])c1 ?
Ans. inactive

Qu. Hey, what did the test say about CC(C)(c1cc(Br)c(OCC(Br)CBr)c(Br)c1)c1cc(Br)c(OCC(Br)CBr)c(Br)c1 (stereo not given) ?
Ans. inactive

Qu. Hey, what did the test say about Nc1nc(-c2ccccc2)cs1 ?
Ans. active

Qu. Hey, what did the test say about O=C1CCc2cc(OCCCCc3nnnn3C3CCCCC3)ccc2N1 ?
Ans. active

Qu. Hey, what did the test say about O=c1[nH]c2ccccc2n1CCCN1CCN(C(c2ccccc2)c2ccccc2)CC1 ?
Ans. active

Qu. Hey, what did the test say about CC(C)CCCCCOC(=O)CCS ?
Ans. inactive

Qu. Hey, what did the test say about CCCCC(CC)CN1CN(CC(CC)CCCC)CC(C)(N)C1 (stereo not given) ?
Ans. active

Qu. Hey, what did the test say about O=C(O)c1cc(=O)c2ccccc2o1 ?
Ans. inactive

Qu. Hey, what did the test say about Cc1cc(C(C)(C)C)cc(C)c1CC1=NCCN1 ?
Ans. inactive

Qu. Hey, what did the test say about CCCCC/C=C\C/C=C\CCCCCCCC(=O)O ?
Ans. active

Qu. Hey, what did the test say about O=C1C(c2[nH]c3ccc(S(=O)(=O)O)cc3c2O)=Nc2ccc(S(=O)(=O)O)cc21 ?
Ans. inactive

Qu. Hey, what did the test say about CCCCCCCCCCCCOC(=O)c1ccc(O)cc1 ?
Ans. active

Qu. Hey, what did the test say about OC1CCCc2ccccc21 (stereo not given) ?
Ans. inactive

Qu. Hey, what did the test say about CCCc1ccc(OCC(=O)N2CCN(C(=O)COc3ccc(CCC)cc3OC)CC2)c(OC)c1 ?
Ans. active

Qu. Hey, what did the test say about ClCCl ?
Ans. inactive

Qu. Hey, what did the test say about CC(C)(C)c1csc(-c2cc3cc(OCc4ccccc4CC(=O)O)ccc3o2)n1 ?
Ans. active

Qu. Hey, what did the test say about C=CC(=O)OCCOC(=O)C=C ?
Ans. inactive

Qu. Hey, what did the test say about Cc1ccc(C(=O)O)cc1 ?
Ans. inactive

Qu. Hey, what did the test say about CC(C)OC(=O)C(O)(CC(=O)O)CC(=O)O ?
Ans. active

Qu. Hey, what did the test say about CCOC(=O)c1ccc(C2CCC(NC[C@H](O)COc3ccc(O)c(NS(C)(=O)=O)c3)CC2)cc1 (stereo not given in full) ?
Ans. inactive

Qu. Hey, what did the test say about CCc1oc2ccccc2c1C(=O)c1cc(I)c(O)c(I)c1 ?
Ans. inactive

Qu. Hey, what did the test say about CCCCCCCC/C=C\CCCCCCCCN ?
Ans. inactive

Qu. Hey, what did the test say about Cc1ccc(O)c(O)c1 ?
Ans. active

Qu. Hey, what did the test say about CCCC(=O)OCCc1ccccc1 ?
Ans. inactive

Qu. Hey, what did the test say about c1ccc(C(O[C@@H]2CCCN(CCc3ccc4c(c3)OCO4)C2)c2ccccc2)cc1 ?
Ans. inactive

Qu. Hey, what did the test say about Cc1cc(-c2ccc(N=Nc3cc(S(=O)(=O)O)c4ccccc4c3N)c(C)c2)ccc1N=Nc1cc(S(=O)(=O)O)c2ccccc2c1N ?
Ans. active

Qu. Hey, what did the test say about OC[C@H]1O[C@H](O[C@H]2O[C@H](CO)[C@@H](O)[C@H](O)[C@H]2O)[C@H](O)[C@@H](O)[C@@H]1O ?
Ans. inactive

Qu. Hey, what did the test say about CC(C)CCOC(=O)/C=C/c1ccccc1 ?
Ans. inactive

Qu. Hey, what did the test say about C1CCC(SSC2CCCCC2)CC1 ?
Ans. inactive

Qu. Hey, what did the test say about C/C=C/C=C/COC(=O)C(C)C ?
Ans. active

Qu. Hey, what did the test say about CCCCCCCCCCCCCCCC[N+](C)(C)CC ?
Ans. inactive

Qu. Hey, what did the test say about Clc1ccnc(Cl)n1 ?
Ans. inactive

Qu. Hey, what did the test say about O=S(=O)(O)c1ccc(Nc2nc(Nc3ccc(/C=C/c4ccc(Nc5nc(Nc6ccc(S(=O)(=O)O)cc6)nc(N(CCO)CCO)n5)cc4S(=O)(=O)O)c(S(=O)(=O)O)c3)nc(N(CCO)CCO)n2)cc1 ?
Ans. inactive

Qu. Hey, what did the test say about CCOc1ccc2ccccc2c1C(=O)N[C@@H]1C(=O)N2[C@@H]1SC(C)(C)[C@@H]2C(=O)O ?
Ans. inactive

Qu. Hey, what did the test say about CCC(C)(CCC(C)C)C(=O)[O][Sn]([CH3])([CH3])[O]C(=O)C(C)(CC)CCC(C)C (stereo not given) ?
Ans. inactive
